This collection of values is drawn from patent US9980943B2.

# System: α7 integrin (LacZ reporter in α7βgal+/− myoblasts)
# assay-remarks: Myoblast α7+/LacZ integrin FDG assay (Burkin assay in myoblasts, 96-well)
# Format: cell-based, mouse
# reported-conditions: 40 uM; α7+/LacZ myoblasts, 96-well
Provide the reported Burkin Assay in Myoblasts, value relative to DMSO of each item.
I only need the number, thanks.

[Q] Look up Burkin Assay in Myoblasts, value relative to DMSO with α7 integrin (LacZ reporter in α7βgal+/− myoblasts) for this compound: `COc1ccc(N2CCCC2)c(NC(=O)c2ccc([N+](=O)[O-])o2)c1`
[A] 0.8976

[Q] Look up Burkin Assay in Myoblasts, value relative to DMSO with α7 integrin (LacZ reporter in α7βgal+/− myoblasts) for this compound: `Cc1nnc(NC(=O)CSc2nnc(CCNC(=O)c3ccccc3F)n2C)s1`
[A] 1.109

[Q] Look up Burkin Assay in Myoblasts, value relative to DMSO with α7 integrin (LacZ reporter in α7βgal+/− myoblasts) for this compound: `O=Cc1ccc(C(=O)OCC(=O)N2CCCC2)cc1`
[A] 0.9431

[Q] Look up Burkin Assay in Myoblasts, value relative to DMSO with α7 integrin (LacZ reporter in α7βgal+/− myoblasts) for this compound: `O=C(Nc1ccc(N2CCN(C(=O)c3ccccc3F)CC2)cc1)c1cncc(Br)c1`
[A] 1.22

[Q] Look up Burkin Assay in Myoblasts, value relative to DMSO with α7 integrin (LacZ reporter in α7βgal+/− myoblasts) for this compound: `Cc1cccc(OCc2nc(C#N)c(N3CCCC3)o2)c1`
[A] 0.9225

* * *

# System: α7 integrin (LacZ reporter in α7+/LacZ myotubes)
# assay-remarks: Myotube α7 integrin FDG assay (Burkin assay in myotubes, 96-well)
# Assay type: cell-based, mouse
# reported-conditions: 10 uM, myotubes
property: Burkin Assay in Myotubes (signal relative to DMSO)
I only need the number, thanks.

[Q] // Burkin Assay in Myotubes (signal relative to DMSO) lookup, key: `c1ccc(-c2cnc(-c3ccccc3)nc2)cc1`
[A] 1.114

[Q] // Burkin Assay in Myotubes (signal relative to DMSO) lookup, key: `COc1ccc(-n2c(SCC(=O)Nc3cccc(C(=O)O)c3)nnc2-c2ccco2)cc1`
[A] 1.155

[Q] // Burkin Assay in Myotubes (signal relative to DMSO) lookup, key: O=c1[nH]c(C2CCCN(S(=O)(=O)c3ccccc3)C2)nc2c1nnn2Cc1cccc(Cl)c1 (stereo not shown)
[A] 1.219

[Q] // Burkin Assay in Myotubes (signal relative to DMSO) lookup, key: `C/C(=N\Nc1nncc2ccccc12)c1cccc(OC(F)F)c1`
[A] 0.9013

[Q] // Burkin Assay in Myotubes (signal relative to DMSO) lookup, key: CCCS(=O)(=O)N1CCCC(C(=O)c2cccc(Cl)c2)C1 (stereo not shown)
[A] 0.9481

[Q] // Burkin Assay in Myotubes (signal relative to DMSO) lookup, key: `Cc1ccc(-c2nc(C)sc2CC(=O)OCC(=O)Nc2c(F)cccc2F)cc1`
[A] 1.042

[Q] // Burkin Assay in Myotubes (signal relative to DMSO) lookup, key: `Cc1ccc(C2Nc3cccc4cccc(c34)N2)s1`
[A] 0.8548

[Q] // Burkin Assay in Myotubes (signal relative to DMSO) lookup, key: O=S(=O)(NCC(c1ccco1)N1CCOCC1)c1ccc(Cl)cc1 (stereo not shown)
[A] 1.002

[Q] // Burkin Assay in Myotubes (signal relative to DMSO) lookup, key: `CSc1ncccc1C(=O)OCC(=O)c1cc(C)n(C)c1C`
[A] 1.042

[Q] // Burkin Assay in Myotubes (signal relative to DMSO) lookup, key: `O=C(Nc1ccc(N2CCN(C(=O)c3ccccc3F)CC2)cc1)c1cncc(Br)c1`
[A] 1.52
